Molecular target: SMO (Mus musculus)
Construct: endogenous in cells; host or cells: C3H10T1/2 (ATCC #CCL-226)
Sequence (P56726 33-793): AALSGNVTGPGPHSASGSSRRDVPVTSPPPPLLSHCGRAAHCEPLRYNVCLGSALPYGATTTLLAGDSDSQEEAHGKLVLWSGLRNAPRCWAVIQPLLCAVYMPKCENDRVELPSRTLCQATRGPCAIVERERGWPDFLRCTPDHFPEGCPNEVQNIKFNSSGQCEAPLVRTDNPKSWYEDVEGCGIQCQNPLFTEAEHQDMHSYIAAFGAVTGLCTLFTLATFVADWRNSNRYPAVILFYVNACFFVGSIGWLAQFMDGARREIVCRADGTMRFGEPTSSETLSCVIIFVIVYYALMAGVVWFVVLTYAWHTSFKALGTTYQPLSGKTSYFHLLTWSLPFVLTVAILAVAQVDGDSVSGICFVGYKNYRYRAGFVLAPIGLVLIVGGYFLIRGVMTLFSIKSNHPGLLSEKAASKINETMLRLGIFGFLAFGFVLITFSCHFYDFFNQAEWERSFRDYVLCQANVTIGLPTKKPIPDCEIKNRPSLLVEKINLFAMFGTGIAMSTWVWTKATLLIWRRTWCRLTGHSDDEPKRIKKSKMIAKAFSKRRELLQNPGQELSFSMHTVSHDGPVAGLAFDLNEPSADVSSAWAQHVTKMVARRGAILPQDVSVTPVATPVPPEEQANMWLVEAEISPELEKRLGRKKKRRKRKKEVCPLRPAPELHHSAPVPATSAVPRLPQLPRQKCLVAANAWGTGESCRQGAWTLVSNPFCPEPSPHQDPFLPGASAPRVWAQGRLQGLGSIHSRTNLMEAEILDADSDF
Test: Smoothened (SMO)/Sonic Hedgehog (SHh) Transient Transcriptional Activation Assay (Gli-luciferase reporter in C3H10T1/2 cells)
Assay type: cell-based, murine
Conditions: C3H 10T1/2, 2 uM test compound, SHh 250 ng/ml, 20 hrs, read-out: SMO % inhibition at 2 uM
Measurement type: inhibition at 2 µM (%)

[[record]]
compound = "COc1cc(OC)cc(C(=O)NC2CCCC(c3nc4cc(NC(C)=O)ccc4[nH]3)C2)c1 (stereo not shown)"
readout_number = 87

[[record]]
compound = "COc1cc(OC)cc(C(=O)NC2CCCC(c3nc4cc(Cl)ccc4[nH]3)C2)c1 (stereo not shown)"
readout_number = 99

[[record]]
compound = "CCn1c(C2CCCC(NC(=O)c3ccc4c(c3)OCCO4)C2)nc2ccccc21 (stereo not shown)"
readout_number = 58

[[record]]
compound = "Cn1c([C@@H]2CCC[C@H](NC(=O)c3ccc4c(c3)OCCO4)C2)nc2ccccc21"
readout_number = 71

